- assayed-system: extracellular domain of human BLyS protein (hBLyS-ECD), His-tagged, Ala134-Leu285 (human, UniProt Q9Y275 134-285)
- Sequence (Q9Y275 134-285): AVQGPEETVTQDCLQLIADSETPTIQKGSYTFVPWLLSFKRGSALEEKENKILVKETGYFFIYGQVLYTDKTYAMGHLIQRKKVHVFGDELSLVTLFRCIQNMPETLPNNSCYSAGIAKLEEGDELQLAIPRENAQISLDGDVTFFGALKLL
- assay-overview: cell-based or functional assay
observation-type: OD450 nm (as headed), mouse B lymphocyte proliferation; antibody 0 nM

binder	experimental-value
c93C6F10D3 (antibody, V domains shown) VH: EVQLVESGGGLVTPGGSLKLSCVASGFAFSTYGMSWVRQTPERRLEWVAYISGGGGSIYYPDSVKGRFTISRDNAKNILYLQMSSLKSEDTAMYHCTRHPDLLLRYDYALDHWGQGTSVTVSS VL: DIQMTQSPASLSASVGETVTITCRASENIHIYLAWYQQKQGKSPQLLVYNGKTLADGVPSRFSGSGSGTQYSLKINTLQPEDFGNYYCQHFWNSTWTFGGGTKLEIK	4320

// data source = patent US20210347873A1
